Assay: NCI Yeast Anticancer Drug Screen. Data for the mlh1 rad18 strain (AID 175)
Conditions: S. cerevisiae mlh1 rad18 strain growth inhibition; at 50.0 µM; active compounds read high
Experimental: Growth inhibition of yeast strains with defined genetic alterations is measured as a screen for potential anti-cancer activity. Selected strains with alterations in DNA damage repair or cell cycle control were exposed to compounds and growth inhibition was measured relative to vehicle treated controls. The strain used in this assay is mlh1 rad18
The panel holds about 79,000 compounds, 15% with a hit somewhere; the sample as a whole holds those more often. Calls of active or inactive are those of the source. Cut-off read from the data, not from the text of the source: active = growth inhibition above about 70%; inactive = the rest.
reported-property: growth inhibition

What value of growth inhibition has been recorded for this entry: "COC(=O)Nc1cn2ccc(C(Cl)=C(Cl)Cl)cc2n1"
-12.5% (inactive)

What value of growth inhibition has been recorded for this entry: "CCOC1(c2cccc([N+](=O)[O-])c2)c2ccccc2Oc2ccccc21"
62% (inactive)

What value of growth inhibition has been recorded for this entry: COc1cc(C2SCC(=O)N2c2ccc(-c3ccc(-n4c(-c5ccccc5)nc5ccccc5c4=O)cc3)cc2)ccc1O (stereo not given)
73.7% (active)

What value of growth inhibition has been recorded for this entry: OC(/C=C/c1ccccc1)(Cc1cc(-c2ccccc2)n[nH]1)c1ccccc1 (stereo not given)
98.7% (active)

What value of growth inhibition has been recorded for this entry: "COc1oc(C(=O)NC2CCCCC2)c(-c2ccc(Cl)cc2)c1S(=O)(=O)c1ccccc1"
45.4% (inactive)

This collection of values is drawn from PubChem BioAssay (NCI).
